Cited source for all entries: patent US8513270B2

Tested on: JAK2_INA61 (cancer cell line dependent on cytokines and JAK/STAT signal transduction)
assay info: Cellular assay: viability of cytokine-dependent cancer cell line (CellTiter-Glo)
Assay type: cell-based
study conditions: 72 hours, read-out: EXAMPLE B JAK2_INA61 IC50
pIC50: −log10 of the molar value. Counter-ions that a name gives are not always drawn.
reported property: pIC50

For orientation, consider the following solved cases.
O=C(Nc1cccc(-c2ccc3c(c2)[nH]c2ncncc23)c1)c1cccc(C(F)(F)F)c1
< 6.00
Cc1ccc(NC(=O)c2ccc(F)c(C(F)(F)F)c2)cc1-c1ccc2[nH]c3ncncc3c2c1
< 6.00
Cc1ccc(C(=O)Nc2cccc(C(F)(F)F)c2)cc1-c1ccc2c(c1)[nH]c1ncncc12
6.00 to 6.30
Cc1ccc(NC(=O)c2cc(N3CCNCC3)cc(C(F)(F)F)c2)cc1-c1ccc2c(c1)[nH]c1ncncc12
6.00 to 6.30
Cc1ccc(NC(=O)c2cccc(Cl)c2)cc1-c1ccc2c(c1)[nH]c1ncncc12
≥ 6.30
Cc1ccc(NC(=O)c2cc(C(F)(F)F)ccc2C(F)(F)F)cc1-c1ccc2c(c1)[nH]c1ncncc12
< 6.00
Cc1ccc(C(=O)Nc2cccc(C(F)(F)F)c2)cc1-c1ccc2c(c1)[nH]c1ncccc12 [Example 68, trifluoroacetate salt]
< 6.00
Cc1ccc(C(=O)Nc2nnc(C(F)(F)F)s2)cc1-c1ccc2c(c1)[nH]c1ncncc12
< 6.00

Challenge: Sample "Cc1ccc(C(=O)NCc2cccc(C(F)(F)F)c2)cc1-c1ccc2c(c1)[nH]c1ncncc12" — what was its pIC50?
Response given: < 6.00

Challenge: Return reported pIC50; argument: "Cc1ccc(NC(=O)c2cccc(C(F)(F)F)c2F)cc1-c1ccc2c(c1)[nH]c1ncncc12"
Response given: ≥ 6.30

Challenge: Record request: pIC50 value, item "Cc1ccc(C(=O)Nc2cccc(OC(F)(F)F)c2)cc1-c1ccc2c(c1)[nH]c1ncncc12"
Response given: 6.00 to 6.30

Challenge: Reported pIC50 for "Cc1ccc(NC(=O)Nc2cccc(C(F)(F)F)c2)cc1-c1ccc2c(c1)[nH]c1ncncc12" : what is it?
Response given: < 6.00

Challenge: Fill in: pIC50 of Cc1ccc(NC(=O)c2cccc(C(F)(F)F)c2)cc1-c1ccc2c(c1)[nH]c1ncncc12 [Example 1, trifluoroacetate] is ___
Response given: ≥ 6.30

Challenge: Which pIC50 is reported for this compound? "Cc1ccc(NC(=O)c2cc(F)cc(C(F)(F)F)c2)cc1-c1ccc2[nH]c3ncncc3c2c1"
Response given: 6.00 to 6.30

Challenge: Recorded pIC50 for "Cc1ccc(NC(=O)c2cccc(S(F)(F)(F)(F)F)c2)cc1-c1ccc2c(c1)[nH]c1ncncc12" , please?
Response given: 6.00 to 6.30

Challenge: Which pIC50 is reported for this compound? "Cc1ccc(NC(=O)c2ccccc2C(F)(F)F)cc1-c1ccc2c(c1)[nH]c1ncncc12"
Response given: < 6.00

Challenge: Sample "Cc1ccc(NC(=O)Nc2cccc(C(F)(F)F)c2)cc1-c1ccc2[nH]c3ncncc3c2c1" — what was its pIC50?
Response given: 6.00 to 6.30
